# credit: paper PMC8414367

melting point for assorted compounds
value-type: melting point

- CCC[C@@]1(O)C[C@@H]2C[C@H](O)CC[C@]2(C)C2CC[C@@]3(C)C(CC[C@@H]3[C@H](C)CCC(=O)O)C21 (stereo partly shown): 100 to 105 °C
- CCCCCCCCC[C@@]1(O)C[C@@H]2C[C@H](O)CC[C@]2(C)C2CC[C@@]3(C)C(CC[C@@H]3[C@H](C)CCC(=O)O)C21 (stereo partly shown): 78 to 80 °C
- C/C=C1\C[C@@H]2C[C@H](O)CC[C@]2(C)[C@H]2CC[C@]3(C)[C@@H]([C@H](C)CCC(=O)O)CC[C@H]3[C@H]12: 67 to 72 °C
- C[C@H](CCC(=O)O)[C@H]1CCC2C3C(CC[C@@]21C)[C@@]1(C)CC[C@@H](O)C[C@H]1C[C@]3(O)C1CC1 (stereo partly shown): 78 to 82 °C
